Just for reference, patent US20050137135A1 is where these values come from.

Measured cAMP Production (Fold Basal) at 20 µM by item
study_system: T1, rat pancreatic islet (wild type) GIP-receptor stably expressed on CHO-K1 cells (rat, UniProt P43219 19-455)
T1 sequence (looked up): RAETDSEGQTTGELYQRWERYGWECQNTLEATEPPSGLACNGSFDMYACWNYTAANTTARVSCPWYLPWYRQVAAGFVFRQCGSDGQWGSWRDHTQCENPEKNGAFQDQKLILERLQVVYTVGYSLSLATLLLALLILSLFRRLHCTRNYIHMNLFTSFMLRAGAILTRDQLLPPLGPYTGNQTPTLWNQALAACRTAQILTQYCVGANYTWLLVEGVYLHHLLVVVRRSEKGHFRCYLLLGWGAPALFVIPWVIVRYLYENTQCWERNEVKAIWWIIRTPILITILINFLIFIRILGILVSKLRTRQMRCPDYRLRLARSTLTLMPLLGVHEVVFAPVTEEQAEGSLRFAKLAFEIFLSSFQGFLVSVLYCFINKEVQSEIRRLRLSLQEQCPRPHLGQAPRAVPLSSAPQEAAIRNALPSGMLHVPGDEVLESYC
method: cell-based or functional assay
Ends that are not written are not given here.
Report the value in fold basal with no unit label.

| binder | scale_unit | cAMP Production (Fold Basal) at 20 µM |
| --- | --- | --- |
| YAEGTFISDYSIA-NH2 (peptide, UniProt P09681 52-64, looked up, range 1-13) [GIP 1-13NH2] | fold basal | 15.7 |
| QQDFVNWLLAQK-NH2 (peptide, UniProt P09681 70-81, looked up, range 19-30; also called GIP19-30a) [GIP 19-30NH2] | fold basal | 45 |
| IRQQDFVNWLLAQK-NH2 (peptide, UniProt P01281 17-30, looked up, range 17-30; also called GIP17-30a) [GIP 17-30NH2] | fold basal | 1.12 |

Lab book: cAMP Production (Fold Basal) at 20 µM of YAEGTFISDYSIAM-NH2 (peptide, UniProt P09681 52-65, looked up, range 1-14) [GIP 1-14NH2] noted as 88.3

Lab book: cAMP Production (Fold Basal) at 20 µM of YAEGTFISDYSIAM-OH (peptide, UniProt P09681 52-65, looked up, range 1-14; free acid form; also called native GIP (1-14)) [GIP 1-14OH] noted as 85.2

Lab book: cAMP Production (Fold Basal) at 20 µM of DKIRQQDFVNWLLAQK-NH2 (peptide, UniProt P01281 15-30, looked up, range 15-30; also called GIP15-30a) [GIP 15-30NH2] noted as 1.01
